- System: Hepatotoxicity
- assay-setup: Liver
measurement-kind: HepSE_hepatitis
Give the figure by itself; no unit, no explanation.

Enquiry: HepSE_hepatitis lookup needed for CC(=O)OCC[N+](C)(C)C , thanks.
Return: 0

Enquiry: // lookup HepSE_hepatitis for CCCCc1oc2ccccc2c1C(=O)c1cc(I)c(OCCN(CC)CC)c(I)c1
Return: 1

Enquiry: Field request: HepSE_hepatitis | item: CCCCS(=O)(=O)N[C@@H](Cc1ccc(OCCCCC2CCNCC2)cc1)C(=O)O
Return: 0

Enquiry: Would you mind telling me what HepSE_hepatitis value was observed for CNCC[C@H](Oc1cccc2ccccc12)c1cccs1 ?
Return: 1

Enquiry: Would you mind telling me what HepSE_hepatitis value was observed for Cc1ccc(C(=O)c2cc(O)c(O)c([N+](=O)[O-])c2)cc1 ?
Return: 0

Enquiry: Need HepSE_hepatitis of NC(CO)(CO)CO , thanks.
Return: 0

Enquiry: Look up HepSE_hepatitis: NCCCNCCSP(=O)(O)O
Return: 0

Enquiry: Look up HepSE_hepatitis: CC(C[N+](C)(C)C)OC(N)=O (stereo not given)
Return: 0

Enquiry: Entry Clc1ccc2nsnc2c1NC1=NCCN1 has what HepSE_hepatitis?
Return: 1

Enquiry: Query: HepSE_hepatitis; subject: CN(C)CCC=C1c2ccccc2C=Cc2ccccc21
Return: 1

Enquiry: # get_value(readout='HepSE_hepatitis', item= OCC(S)CS (stereo not given) )
Return: 0

Enquiry: What does the record list as HepSE_hepatitis for CC(C)(C)NCC(O)c1ccc(O)c(CO)c1 (stereo not given) ?
Return: 0

Enquiry: Look at this compound and give its reported HepSE_hepatitis. Cl[C@H]1[C@H](Cl)[C@@H](Cl)[C@@H](Cl)[C@H](Cl)[C@H]1Cl
Return: 0

Enquiry: Entry Nc1ccc(S(=O)(=O)c2ccc(N)cc2)cc1 has what HepSE_hepatitis?
Return: 0

Enquiry: // returns reported HepSE_hepatitis for input CN1CC[C@]23c4c5ccc(O)c4O[C@H]2[C@@H](O)C=C[C@H]3[C@H]1C5
Return: 0

Enquiry: Please look up its HepSE_hepatitis: CNCCCN1c2ccccc2CCc2ccccc21
Return: 1

Enquiry: Find the recorded HepSE_hepatitis belonging to CCn1cc(C(=O)O)c(=O)c2cc(F)c(N3CCNCC3)cc21 and report it.
Return: 1

Enquiry: I would be grateful if you could share the reported HepSE_hepatitis for CC[C@H]1OC(=O)[C@H](C)C(=O)[C@H](C)[C@@H](O[C@@H]2O[C@H](C)C[C@H](N(C)C)[C@H]2O)[C@](C)(OC)C[C@@H](C)C(=O)[C@H](C)[C@H]2N(CCCCn3cnc(-c4cccnc4)c3)C(=O)O[C@]12C .
Return: 1

Enquiry: Would you kindly share the measured HepSE_hepatitis for O=C(O)c1cn(C2CC2)c2cc(N3CCNCC3)c(F)cc2c1=O ?
Return: 1

Enquiry: # input compound: O=C(O)CN(CCN(CC(=O)O)CC(=O)O)CC(=O)O ; wanted: its HepSE_hepatitis
Return: 0

---

measurement-kind: DILI positive/negative
A bare number is all that is needed in reply.

Enquiry: Value wanted: DILI positive/negative (Hepatotoxicity) of entry C[N+](C)(C)CCOP(=O)(O)OP(=O)([O-])OC[C@H]1O[C@@H](n2ccc(N)nc2=O)[C@H](O)[C@@H]1O
Return: 0

Enquiry: Notebook entry, Hepatotoxicity assay: DILI positive/negative of CC(=O)Oc1cc(C(C)C)c(OCCN(C)C)cc1C = ?
Return: 0

Enquiry: State its DILI positive/negative on Hepatotoxicity: CC1=C(/C=C/C(C)=C/C=C/C(C)=C\C(=O)O)C(C)(C)CCC1
Return: 1

Enquiry: Tell me reported DILI positive/negative for COc1cc2c(c(OC)c1OC)-c1ccc(OC)c(=O)cc1[C@@H](NC(C)=O)CC2 , tested with Hepatotoxicity.
Return: 1

Enquiry: Give recorded DILI positive/negative with Hepatotoxicity for the following compound: CC(C)(C)c1ccc(C(O)CCCN2CCC(C(O)(c3ccccc3)c3ccccc3)CC2)cc1 (stereo not drawn)
Return: 1

Enquiry: What DILI positive/negative appears in the records for this compound with Hepatotoxicity? CNC(=O)Oc1ccc2c(c1)[C@]1(C)CCN(C)[C@@H]1N2C
Return: 0

Enquiry: Lab note: need DILI positive/negative with Hepatotoxicity for entry C=C[C@H]1C[N@@]2CC[C@H]1C[C@H]2[C@H](O)c1ccnc2ccc(OC)cc12 , please look it up.
Return: 1

Enquiry: Any idea what DILI positive/negative came out for Nc1ccc(S(=O)(=O)Nc2ccnn2-c2ccccc2)cc1 on Hepatotoxicity?
Return: 1
